propertyMeasured: melting point

Please review the entries below; each comes with its answer.
>>> val("COC(=O)NC(C)c1cccc(-c2ccc(OC)cc2)c1 (stereo not shown)")
"117 to 119 °C"
>>> val("CC(C)OC(=O)NCc1cccc(-c2ccccc2)c1 [1-150, Isopropyl N-(3-phenylbenzyl)carbamate]")
"61 to 64 °C"
>>> val("COC(=O)NCc1cccc(-c2ccccc2)c1 [1-1, Methyl N-(3-phenylbenzyl)carbamate]")
"49 to 52 °C"

Q: Find the recorded melting point belonging to `COC(=O)NCc1cccc(-c2ccccc2)c1C` and report it.
A: 91 to 94 °C

Attribution: patent US6620961B1
